Entries and their IC50
molecular target: Isocitrate dehydrogenase [NADP] cytoplasmic (Homo sapiens); assay: Inhibition of IDH1 R132C mutant (unknown origin) assessed as reduction in NADPH consumption using alpha-KG as substrate incubated for 60 mins by diaphorase and resazurin dye based assay
Sequence (O75874 2-414 R132C limits assumed): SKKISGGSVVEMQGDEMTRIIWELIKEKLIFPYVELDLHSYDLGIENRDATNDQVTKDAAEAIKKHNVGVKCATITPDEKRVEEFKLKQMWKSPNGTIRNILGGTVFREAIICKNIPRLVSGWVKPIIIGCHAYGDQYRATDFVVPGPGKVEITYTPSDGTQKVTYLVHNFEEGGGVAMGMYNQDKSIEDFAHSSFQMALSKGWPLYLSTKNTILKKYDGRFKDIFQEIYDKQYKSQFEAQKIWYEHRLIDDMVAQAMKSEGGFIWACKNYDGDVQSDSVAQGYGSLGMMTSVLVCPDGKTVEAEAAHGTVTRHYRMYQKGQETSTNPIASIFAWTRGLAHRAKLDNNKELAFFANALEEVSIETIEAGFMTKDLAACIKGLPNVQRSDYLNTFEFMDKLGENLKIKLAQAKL

These solved cases illustrate the format of a correct answer.
INSERT INTO results (compound, measurement) VALUES
  ('FC1(F)CCC(Nc2nc(NC3CCC(F)(F)CC3)nc(-c3cncc(C(F)(F)F)n3)n2)CC1', '< 0.05 µM'),
  ('C[C@@H](Nc1nc(N[C@H](C)C2CC2)nc(-n2ccc(C(F)(F)F)n2)n1)C1CC1', '< 0.05 µM'),
  ('FC1(F)CC(Nc2nc(NC3CC(F)(F)C3)nc(-c3nc(C(F)(F)F)cs3)n2)C1', '< 0.05 µM');

Continue with the next compound.
Entry under test: CC(F)(F)c1cccc(-c2nc(NC3CCC(F)(F)C3)nc(NC3CCC(F)(F)C3)n2)n1 (centres undefined) . Its IC50 was < 0.05 µM

Just for reference, BindingDB's records for doi:10.1021/acs.jmedchem.8b00159 is where these values come from.
